# Tested on: 519858-162-T-J1-PDC complex spheroid growth, % test/control
# TEST: Anticancer human tumor 519858-162-T-J1-PDC patient-derived colon adenocarcinoma cell line growth inhibition [Asc]
# ASSAY CONTEXT: second compound 0.0949 µM; first compound 0.0316 µM; stronger effect = lower value
Kindly supply the reported viability, T/C values for the records listed here.
One number for each entry, in %.

C=CC(=O)N1CCN(c2nc(=O)n(-c3c(C)ccnc3C(C)C)c3nc(-c4c(O)cccc4F)c(F)cc23)C(C)C1 (centres undefined) + CCN1C(C(=O)NC23CCC(C(=O)O)(CC2)CC3)C(c2cccc(Cl)c2F)C2(C(=O)Nc3cc(Cl)ccc32)C12CCCCC2 :: 92.7
O=C(c1cc(Cc2n[nH]c(=O)c3ccccc23)ccc1F)N1CCN(C(=O)C2CC2)CC1 + CCN1C(C(=O)NC23CCC(C(=O)O)(CC2)CC3)C(c2cccc(Cl)c2F)C2(C(=O)Nc3cc(Cl)ccc32)C12CCCCC2 :: 117
NC1CCC(NC2CC2c2ccccc2)CC1 (centres undefined) + CCN1C(C(=O)NC23CCC(C(=O)O)(CC2)CC3)C(c2cccc(Cl)c2F)C2(C(=O)Nc3cc(Cl)ccc32)C12CCCCC2 :: 128

Moving on to the next compound.
Field viability, T/C (entry CNC(C)C(=O)NC1CN(S(=O)(=O)c2cccc(S(=O)(=O)N3CCC4CCC(C(=O)NC(c5ccccc5)c5ccccc5)N4C(=O)C(NC(=O)C(C)NC)C3)c2)CCC2CCC(C(=O)NC(c3ccccc3)c3ccccc3)N2C1=O (centres undefined) + CCN1C(C(=O)NC23CCC(C(=O)O)(CC2)CC3)C(c2cccc(Cl)c2F)C2(C(=O)Nc3cc(Cl)ccc32)C12CCCCC2 ) reads 85.1

---

# System: 519858-162-T-J1-PDC complex spheroid growth, % test/control
# TEST: Anticancer human tumor 519858-162-T-J1-PDC cell line growth inhibition [Asc];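 note: seven day drug exposure begun three days after spheroid seeding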;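 for viability, T/C: 100% = DMSO vehicle wells and lower values mean less viable spheroid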
# ASSAY CONTEXT: second compound 0.316 µM; first compound 3 µM; stronger effect = lower value
MEASUREMENT LABEL: viability, T/C (%)
Answers are plain numbers, in %.

Recorded viability, T/C for Cc1nc(N2CCC3(CC2)COC(C)C3N)c(CO)nc1Sc1ccnc(N)c1Cl (stereo unspecified) + CNC(C)C(=O)NC1CN(S(=O)(=O)c2cccc(S(=O)(=O)N3CCC4CCC(C(=O)NC(c5ccccc5)c5ccccc5)N4C(=O)C(NC(=O)C(C)NC)C3)c2)CCC2CCC(C(=O)NC(c3ccccc3)c3ccccc3)N2C1=O on 519858-162-T-J1-PDC complex spheroid growth, % test/control was 64.2

---

# Test system: 519858-162-T-J1-PDC complex spheroid growth, % test/control
# TEST: Anticancer human tumor 519858-162-T-J1-PDC cell line growth inhibition [Asc];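 note: seven day drug exposure begun three days after spheroid seeding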;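 for viability, T/C: 100% = DMSO vehicle wells and lower values mean less viable spheroid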
# ASSAY CONTEXT: second compound 10 µM; first compound 3.16 µM; stronger effect = lower value
MEASUREMENT LABEL: viability, T/C (%)
Numbers only, in %.

Use the examples below as a reference point.
C=CC(=O)N1CCN(c2nc(=O)n(-c3c(C)ccnc3C(C)C)c3nc(-c4c(O)cccc4F)c(F)cc23)C(C)C1 (centres undefined) + Cc1c(S(C)(=O)=O)c(-c2cc(F)cc(N3CCN(c4ccc(NS(=O)(=O)c5ccc(NC(CCN6CCC(C(=O)OCCCP(=O)(O)O)CC6)CSc6ccccc6)c(S(=O)(=O)C(F)(F)F)c5)cc4)CC3)c2)c(-c2ccc(Cl)cc2)n1C(C)C :: 83.2
C=C(F)C(=O)N1CCN(c2nc(OCC3CCCN3C)nc3c2CCN(c2cccc4cccc(Cl)c24)C3)CC1CC#N (centres undefined) + Cc1c(S(C)(=O)=O)c(-c2cc(F)cc(N3CCN(c4ccc(NS(=O)(=O)c5ccc(NC(CCN6CCC(C(=O)OCCCP(=O)(O)O)CC6)CSc6ccccc6)c(S(=O)(=O)C(F)(F)F)c5)cc4)CC3)c2)c(-c2ccc(Cl)cc2)n1C(C)C :: 51.4
O=C(c1cc(Cc2n[nH]c(=O)c3ccccc23)ccc1F)N1CCN(C(=O)C2CC2)CC1 + Cc1c(S(C)(=O)=O)c(-c2cc(F)cc(N3CCN(c4ccc(NS(=O)(=O)c5ccc(NC(CCN6CCC(C(=O)OCCCP(=O)(O)O)CC6)CSc6ccccc6)c(S(=O)(=O)C(F)(F)F)c5)cc4)CC3)c2)c(-c2ccc(Cl)cc2)n1C(C)C :: 65.2

Moving on to the next compound.
Field viability, T/C (entry C#Cc1c(F)ccc2cc(O)cc(-c3ncc4c(N5CC6CCC(C5)N6)nc(OCC56CCCN5CC(F)C6)nc4c3F)c12 (centres undefined) + Cc1c(S(C)(=O)=O)c(-c2cc(F)cc(N3CCN(c4ccc(NS(=O)(=O)c5ccc(NC(CCN6CCC(C(=O)OCCCP(=O)(O)O)CC6)CSc6ccccc6)c(S(=O)(=O)C(F)(F)F)c5)cc4)CC3)c2)c(-c2ccc(Cl)cc2)n1C(C)C ) reads 60.1

---

Kindly supply the reported viability, T/C values for the records listed here.
# Test system: 519858-162-T-J1-PDC complex spheroid growth, % test/control
# TEST: Anticancer human tumor 519858-162-T-J1-PDC cell line growth inhibition [Asc];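 note: seven day drug exposure begun three days after spheroid seeding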;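 for viability, T/C: 100% = DMSO vehicle wells and lower values mean less viable spheroid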
# ASSAY CONTEXT: second compound 0.1 µM; first compound 0.3 µM; stronger effect = lower value
One number for each entry, in %.

Use the examples below as a reference point.
NC(=O)C(=Cn1cnc(-c2cc(C(F)(F)F)cc(C(F)(F)F)c2)n1)c1cncnc1 + CNC(C)C(=O)NC1CN(S(=O)(=O)c2cccc(S(=O)(=O)N3CCC4CCC(C(=O)NC(c5ccccc5)c5ccccc5)N4C(=O)C(NC(=O)C(C)NC)C3)c2)CCC2CCC(C(=O)NC(c3ccccc3)c3ccccc3)N2C1=O :: 71.2
Cc1nc(N2CCC3(CC2)COC(C)C3N)c(CO)nc1Sc1ccnc(N)c1Cl (stereo unspecified) + CNC(C)C(=O)NC1CN(S(=O)(=O)c2cccc(S(=O)(=O)N3CCC4CCC(C(=O)NC(c5ccccc5)c5ccccc5)N4C(=O)C(NC(=O)C(C)NC)C3)c2)CCC2CCC(C(=O)NC(c3ccccc3)c3ccccc3)N2C1=O :: 72.6
NC(=O)C(=Cn1cnc(-c2cc(C(F)(F)F)cc(C(F)(F)F)c2)n1)c1cncnc1 + Cc1c(S(C)(=O)=O)c(-c2cc(F)cc(N3CCN(c4ccc(NS(=O)(=O)c5ccc(NC(CCN6CCC(C(=O)OCCCP(=O)(O)O)CC6)CSc6ccccc6)c(S(=O)(=O)C(F)(F)F)c5)cc4)CC3)c2)c(-c2ccc(Cl)cc2)n1C(C)C :: 98.2
CCN1C(C(=O)NC23CCC(C(=O)O)(CC2)CC3)C(c2cccc(Cl)c2F)C2(C(=O)Nc3cc(Cl)ccc32)C12CCCCC2 (stereo unspecified) + CNC(C)C(=O)NC1CN(S(=O)(=O)c2cccc(S(=O)(=O)N3CCC4CCC(C(=O)NC(c5ccccc5)c5ccccc5)N4C(=O)C(NC(=O)C(C)NC)C3)c2)CCC2CCC(C(=O)NC(c3ccccc3)c3ccccc3)N2C1=O :: 93.2
Cc1nc(N2CCC3(CC2)COC(C)C3N)c(CO)nc1Sc1ccnc(N)c1Cl (stereo unspecified) + Cc1c(S(C)(=O)=O)c(-c2cc(F)cc(N3CCN(c4ccc(NS(=O)(=O)c5ccc(NC(CCN6CCC(C(=O)OCCCP(=O)(O)O)CC6)CSc6ccccc6)c(S(=O)(=O)C(F)(F)F)c5)cc4)CC3)c2)c(-c2ccc(Cl)cc2)n1C(C)C :: 63.9

Moving on to the next compound.
Field viability, T/C (entry CCN1C(C(=O)NC23CCC(C(=O)O)(CC2)CC3)C(c2cccc(Cl)c2F)C2(C(=O)Nc3cc(Cl)ccc32)C12CCCCC2 (stereo unspecified) + Cc1c(S(C)(=O)=O)c(-c2cc(F)cc(N3CCN(c4ccc(NS(=O)(=O)c5ccc(NC(CCN6CCC(C(=O)OCCCP(=O)(O)O)CC6)CSc6ccccc6)c(S(=O)(=O)C(F)(F)F)c5)cc4)CC3)c2)c(-c2ccc(Cl)cc2)n1C(C)C ) reads 87.6

---

# Tested on: 519858-162-T-J1-PDC complex spheroid growth, % test/control
# TEST: Anticancer human tumor 519858-162-T-J1-PDC cell line growth inhibition [Asc];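 note: seven day drug exposure begun three days after spheroid seeding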
# ASSAY CONTEXT: compound alone; run of 11/15/2022
pIC50: −log10 of the molar value.
MEASUREMENT LABEL: pIC50

Recorded pIC50 for CNC(C)C(=O)NC1CN(S(=O)(=O)c2cccc(S(=O)(=O)N3CCC4CCC(C(=O)NC(c5ccccc5)c5ccccc5)N4C(=O)C(NC(=O)C(C)NC)C3)c2)CCC2CCC(C(=O)NC(c3ccccc3)c3ccccc3)N2C1=O (stereo unspecified) on 519858-162-T-J1-PDC complex spheroid growth, % test/control was < 6.00

---

# System: 519858-162-T-J1-PDC complex spheroid growth, % test/control
# TEST: Anticancer human tumor 519858-162-T-J1-PDC cell line growth inhibition [Asc];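 note: seven day drug exposure begun three days after spheroid seeding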;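 for viability, T/C: 100% = DMSO vehicle wells and lower values mean less viable spheroid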
# ASSAY CONTEXT: second compound 0.0316 µM; first compound 1 µM; stronger effect = lower value
Kindly supply the reported viability, T/C values for the records listed here.
One number for each entry, in %.

Use the examples below as a reference point.
O=C(c1ccc(F)c(F)c1Nc1ccc(I)cc1F)N1CC(O)([C@@H]2CCCCN2)C1 + CNC(C)C(=O)NC1CN(S(=O)(=O)c2cccc(S(=O)(=O)N3CCC4CCC(C(=O)NC(c5ccccc5)c5ccccc5)N4C(=O)C(NC(=O)C(C)NC)C3)c2)CCC2CCC(C(=O)NC(c3ccccc3)c3ccccc3)N2C1=O :: 14.3
C=CC(=O)N1CCN(c2nc(=O)n(-c3c(C)ccnc3C(C)C)c3nc(-c4c(O)cccc4F)c(F)cc23)C(C)C1 (stereo not drawn) + Cc1c(S(C)(=O)=O)c(-c2cc(F)cc(N3CCN(c4ccc(NS(=O)(=O)c5ccc(NC(CCN6CCC(C(=O)OCCCP(=O)(O)O)CC6)CSc6ccccc6)c(S(=O)(=O)C(F)(F)F)c5)cc4)CC3)c2)c(-c2ccc(Cl)cc2)n1C(C)C :: 79.4
O=C(c1cc(Cc2n[nH]c(=O)c3ccccc23)ccc1F)N1CCN(C(=O)C2CC2)CC1 + Cc1c(S(C)(=O)=O)c(-c2cc(F)cc(N3CCN(c4ccc(NS(=O)(=O)c5ccc(NC(CCN6CCC(C(=O)OCCCP(=O)(O)O)CC6)CSc6ccccc6)c(S(=O)(=O)C(F)(F)F)c5)cc4)CC3)c2)c(-c2ccc(Cl)cc2)n1C(C)C :: 104
C=C(F)C(=O)N1CCN(c2nc(OCC3CCCN3C)nc3c2CCN(c2cccc4cccc(Cl)c24)C3)CC1CC#N (stereo not drawn) + CNC(C)C(=O)NC1CN(S(=O)(=O)c2cccc(S(=O)(=O)N3CCC4CCC(C(=O)NC(c5ccccc5)c5ccccc5)N4C(=O)C(NC(=O)C(C)NC)C3)c2)CCC2CCC(C(=O)NC(c3ccccc3)c3ccccc3)N2C1=O :: 93.4
C=C(F)C(=O)N1CCN(c2nc(OCC3CCCN3C)nc3c2CCN(c2cccc4cccc(Cl)c24)C3)CC1CC#N (stereo not drawn) + Cc1c(S(C)(=O)=O)c(-c2cc(F)cc(N3CCN(c4ccc(NS(=O)(=O)c5ccc(NC(CCN6CCC(C(=O)OCCCP(=O)(O)O)CC6)CSc6ccccc6)c(S(=O)(=O)C(F)(F)F)c5)cc4)CC3)c2)c(-c2ccc(Cl)cc2)n1C(C)C :: 98.9
CNC(C)C(=O)NC1CN(S(=O)(=O)c2cccc(S(=O)(=O)N3CCC4CCC(C(=O)NC(c5ccccc5)c5ccccc5)N4C(=O)C(NC(=O)C(C)NC)C3)c2)CCC2CCC(C(=O)NC(c3ccccc3)c3ccccc3)N2C1=O (stereo not drawn) + Cc1c(S(C)(=O)=O)c(-c2cc(F)cc(N3CCN(c4ccc(NS(=O)(=O)c5ccc(NC(CCN6CCC(C(=O)OCCCP(=O)(O)O)CC6)CSc6ccccc6)c(S(=O)(=O)C(F)(F)F)c5)cc4)CC3)c2)c(-c2ccc(Cl)cc2)n1C(C)C :: 81.5
O=C(c1ccc(F)c(F)c1Nc1ccc(I)cc1F)N1CC(O)([C@@H]2CCCCN2)C1 + Cc1c(S(C)(=O)=O)c(-c2cc(F)cc(N3CCN(c4ccc(NS(=O)(=O)c5ccc(NC(CCN6CCC(C(=O)OCCCP(=O)(O)O)CC6)CSc6ccccc6)c(S(=O)(=O)C(F)(F)F)c5)cc4)CC3)c2)c(-c2ccc(Cl)cc2)n1C(C)C :: 14.5

Moving on to the next compound.
Field viability, T/C (entry O=C(c1cc(Cc2n[nH]c(=O)c3ccccc23)ccc1F)N1CCN(C(=O)C2CC2)CC1 + CNC(C)C(=O)NC1CN(S(=O)(=O)c2cccc(S(=O)(=O)N3CCC4CCC(C(=O)NC(c5ccccc5)c5ccccc5)N4C(=O)C(NC(=O)C(C)NC)C3)c2)CCC2CCC(C(=O)NC(c3ccccc3)c3ccccc3)N2C1=O ) reads 91.1
